FYI, the data here is from PubChem BioAssay.

ASSAY_TEXT: small molecules captured by biotinylated probe aFGF2 – biochemical, small-molecule microarray, fluorescence 635/667, stem cell growth factor project, primary screen (AID 1067);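 also: measures binding of biotinylated aFGF2 protein to printed compounds on slides; z-score merges feature fluorescence and signal-to-noise across triplicate slides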
MEASUREMENT_PARAMETERS: higher = more signal
Decision: composite z-score compared against -0.05; not below it gives 1 (yes), below it gives 0 (no).

Input line: Quick check: does NCCCCCCNC(=O)[C@H]1C[C@H]2C(=O)N3CCC[C@H]3C(=O)N2[C@H]1c1ccc(O)cc1 have composite z-score greater than or equal to -0.05?
Output line: 1 (yes)

Input line: Quick check: does C[N+](C)(C)CCCCNC(=O)[C@H]1C[C@H]2C(=O)NCC(=O)N2[C@H]1c1ccc(O)cc1 have composite z-score greater than or equal to -0.05?
Output line: 1 (yes)

Input line: Quick check: does COc1ccc(C#Cc2ccc3c(c2)[C@]2(C(=O)N3)[C@H](C(N)=O)[C@H]3C(=O)O[C@H](c4ccccc4)[C@H](c4ccccc4)N3[C@@H]2c2ccc(O)cc2)cc1 have composite z-score greater than or equal to -0.05?
Output line: 1 (yes)

Input line: Quick check: does NC(=O)NCC#Cc1ccc2c(c1)[C@]1(C(=O)N2)[C@H](c2ccc(O)cc2)N2[C@H](c3ccccc3)[C@H](c3ccccc3)OC(=O)[C@H]2[C@@H]1C(=O)NC[C@H](O)c1ccccc1 have composite z-score greater than or equal to -0.05?
Output line: 0 (no)

Input line: Quick check: does CC(C)CNC(=O)[C@@]1(c2ccc([N+](=O)[O-])cc2)CC(=O)N(C(C)C)[C@@H]1c1ccc(CO)cc1 have composite z-score greater than or equal to -0.05?
Output line: 0 (no)

Input line: Quick check: does COC(=O)C(CC#Cc1ccc2c(c1)[C@]1(C(=O)N2)[C@H](c2ccc(OCCO)cc2)N2[C@H](c3ccccc3)[C@H](c3ccccc3)OC(=O)[C@H]2[C@@H]1C(=O)O)C(=O)OC have composite z-score greater than or equal to -0.05?
Output line: 1 (yes)

----------
Test system: Neuregulin-1 EGF-like domain
ASSAY_TEXT: small molecules binding NRG1 EGF domain – biochemical, small-molecule microarray, 635 nm fluorescence, primary screen (AID 1081);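 also: binding of the protein to compounds printed on small-molecule microarray slides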
MEASUREMENT_PARAMETERS: higher = more signal
Decision: composite z-score compared against 0.5; not below it gives yes (1), below it gives no (0).

Input line: Quick check: does C[C@@H]1ON(c2ccccc2)[C@H](c2ccccc2)[C@H]1C(=O)N1C(=O)OC[C@H]1Cc1ccccc1 have composite z-score greater than or equal to 0.5?
Output line: yes (1)

Input line: Quick check: does CC(C)C(CO)N1C(=O)[C@@H]2[C@H]3C(=O)OCC=C[C@H]3OC23C=CCN(Cn2nnc4ccccc42)C(=O)[C@@H]13 (some centres not stated) have composite z-score greater than or equal to 0.5?
Output line: no (0)

Input line: Quick check: does O=C(NCc1ccccc1)[C@]1(Cc2ccccc2)N=C(c2ccc(OCCCO)cc2)O[C@@H]1c1ccccc1 have composite z-score greater than or equal to 0.5?
Output line: yes (1)

Input line: Quick check: does COc1ccc([Si](C)(C)[C@@H]2[C@@H](CCO)O[C@]3(C(=O)N(Cc4ccccc4)c4ccc(N5CCCCC5=O)cc43)[C@H]2C)cc1 have composite z-score greater than or equal to 0.5?
Output line: yes (1)

Input line: Quick check: does C=CCN1C(=O)[C@@]2(O[C@@H](CCO)[C@H]([Si](C)(C)c3ccc(OC)cc3)[C@H]2C)c2cc(NC(=O)[C@H](C)O)ccc21 have composite z-score greater than or equal to 0.5?
Output line: yes (1)

Input line: Quick check: does COC(=O)c1ccc(OC)c(/C=C\CC(CCc2ccccc2)OC(C)=O)c1 (configuration not stated) have composite z-score greater than or equal to 0.5?
Output line: no (0)

----------
System: Inhibin beta A chain (activin A)
ASSAY_TEXT: small molecules binding activin A – biochemical, small-molecule microarray, 635 nm fluorescence scan, primary screen (AID 1107);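 also: mouse activin A protein probed at 4.33 µg/mL on printed slides; score merges bound-protein fluorescence near 667 nm with spot signal-to-noise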
MEASUREMENT_PARAMETERS: INHBA, higher = more signal
VALUE_KIND: composite z-score
Form field (numeric): enter value without unit.

Input line: Given CC(=O)NCCCC[C@@H]1NC(=O)[C@H]2C[C@@H](C(=O)NCCCCCN)[C@@H](c3cccc(OCCO)c3)N2C1=O , respond with its composite z-score.
Output line: 0.602

Input line: Given O=c1c2ccc(Br)cc2nc(-c2ccccc2)n1Cc1cccc(O)c1 , respond with its composite z-score.
Output line: 0.41

Input line: Given CCCCC=C[C@@H](NC(=O)CCc1ccccc1)c1ccccc1 , respond with its composite z-score.
Output line: 0.724

Input line: Given CCOC(=O)C[C@H]1[C@H](OC(=O)c2cc3ccccc3oc2=O)[C@@H](NC(=O)c2ccc3ccccc3n2)c2cc(OCCCO)ccc2N1C(=O)c1ccc2ccccc2n1 , respond with its composite z-score.
Output line: 0.626

Input line: Given N#Cc1ccc(NN2C(C(O)c3ccccc3)C=CC3C(=O)N(c4ccccc4)C(=O)C32)cc1 (stereo not drawn) , respond with its composite z-score.
Output line: 0.658

Input line: Given COCCOC(=O)N1C(=O)[C@@]2(c3cc(C#CC4(O)CCCCCC4)ccc31)[C@H](C(=O)N1CCN(c3ncccn3)CC1)[C@H]1C(=O)O[C@H](c3ccccc3)[C@H](c3ccccc3)N1[C@@H]2c1ccc(O)cc1 , respond with its composite z-score.
Output line: 0.921

Input line: Given C=CC[C@@]1(C(=O)NCC(O)CO)N=C(c2ccc(OCCCO)cc2)O[C@@H]1c1ccccc1 (stereo partly drawn) , respond with its composite z-score.
Output line: 0.505

Input line: Given COc1ccc([Si](C)(C)[C@@H]2[C@@H](CC(=O)N3Cc4ccccc4C[C@H]3CO)O[C@]3(C(=O)N(Cc4cccc(N5CCCCC5=O)c4)c4ccccc43)[C@H]2C)cc1 , respond with its composite z-score.
Output line: 0.435

Input line: Given C=CCOC(=O)[C@H]1[C@@H]2C(=O)O[C@@H](c3ccccc3)[C@@H](c3ccccc3)N2[C@@H](c2ccc(OCCOC(=O)[C@H]3C[C@H]4C(=O)N[C@@H](CCCCN(C)C)C(=O)N4[C@H]3c3ccc(O)cc3)cc2)[C@]12C(=O)Nc1ccccc12 , respond with its composite z-score.
Output line: 1.04

Input line: Given O=C1O[C@H](c2ccccc2)[C@H](c2ccccc2)N2[C@H]1[C@@H](C(=O)N1CCCCCCC1)[C@]1(C(=O)Nc3ccccc31)[C@H]2c1ccc(O)cc1 , respond with its composite z-score.
Output line: 2

Input line: Given O=C(O)[C@@]1(Cc2ccccc2)COC(c2ccc(OCCCO)cc2)=N1 , respond with its composite z-score.
Output line: 0.53

Input line: Given COCCOC(=O)N1C(=O)[C@@]2(c3cc(C#CCC(C(=O)OC)C(=O)OC)ccc31)[C@H](C(=O)N1CCCCCCC1)[C@H]1C(=O)O[C@H](c3ccccc3)[C@H](c3ccccc3)N1[C@@H]2c1ccc(O)cc1 , respond with its composite z-score.
Output line: 1.63

Input line: Given C=C(/C(=C/C[C@@H](OC(=O)c1ccncc1)c1ccccc1OCCO)c1cnc2ccccc2c1)C(C)C , respond with its composite z-score.
Output line: 1.77

----------
ASSAY_TEXT: resazurin metabolic signal in A549 cells – cell-based, resazurin fluorescence, 24 h, PK04 Diversity Set, profiling panel (AID 1171); also: test concentration not given here
MEASUREMENT_PARAMETERS: A549 viability, higher = more signal, called active from +8 up or from −8 down
VALUE_KIND: z-score
Form field (numeric): enter value without unit.

Input line: Given COCCOC(=O)N1C(=O)[C@@]2(c3cc(C#CCCO)ccc31)[C@H](C(=O)NC[C@H](O)c1ccccc1)[C@H]1C(=O)O[C@H](c3ccccc3)[C@H](c3ccccc3)N1[C@@H]2c1ccccc1OCCO , respond with its z-score.
Output line: 0.715

Input line: Given CC(C)C[C@@H]1NC(=O)[C@@H]2C[C@H](C(=O)NCCCC[N+](C)(C)C)[C@H](c3cccc(OCCO)c3)N2C1=O , respond with its z-score.
Output line: -0.331

Input line: Given Cc1ccc(N2C(=O)c3ccccc3[C@](C)(C(=O)NC(C)C)[C@@H]2c2ccc(CO)cc2)nc1 , respond with its z-score.
Output line: 0.0095
